B1: TPR 5TU (parent)
chain: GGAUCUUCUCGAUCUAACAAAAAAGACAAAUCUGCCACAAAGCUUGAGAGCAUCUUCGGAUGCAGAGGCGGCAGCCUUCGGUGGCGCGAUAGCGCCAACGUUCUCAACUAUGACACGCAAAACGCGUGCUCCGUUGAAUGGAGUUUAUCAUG

variants of: B1; experiment: polymerase ribozyme fitness, log enrichment relative to wild type (log ratio); higher = more active; in vitro selection for triplet polymerase activity
This sample holds only a part of the variants without activity.
MEASURED ENDPOINT: polymerase ribozyme fitness (log ratio)

C99G A107C G143C
≤ -4.2

# input Fill in: polymerase ribozyme fitness (log ratio) of G11A U56A C76U U111C U148A is ___
# output ≤ -4.2

# input Fill in: polymerase ribozyme fitness (log ratio) of G48U G92U U144C is ___
# output -0.761

# input Fill in: polymerase ribozyme fitness (log ratio) of G59A C76G G80C C116G C118G is ___
# output ≤ -4.2

# input Fill in: polymerase ribozyme fitness (log ratio) of C36U C85U G124C is ___
# output -2.46

# input Fill in: polymerase ribozyme fitness (log ratio) of U55A C76A G84U C116U A137U is ___
# output ≤ -4.2

# input Fill in: polymerase ribozyme fitness (log ratio) of U9C C85U is ___
# output -3.24

# input Fill in: polymerase ribozyme fitness (log ratio) of U9G A17G A52U C75G G84A C105U is ___
# output ≤ -4.2

# input Fill in: polymerase ribozyme fitness (log ratio) of U6C G48C G65A U78A G80A G88C A106G U127C G152U is ___
# output ≤ -4.2
